Would you kindly list activity, negative = cell killing for each of these molecules?
- assayText: Drug repurposing screens with cells derived from glioblastoma tumor samples (AID 1345199); also: % is scaled to controls: 0 for no effect and ±100 for the full control effect; nearly all actives have a fitted effect of over 40% in size
- assaySetup: GBM patient neurospheres viability, ATP luminescence, 48 h; at 21.2 µM (top of the series); tumour line D
Results filed as inconclusive are left out.
Give the value in % but do not write % after it.

Consider CCNC1(c2cccs2)CCCCC1=O (centres undefined) . Its measured activity, negative = cell killing is -6.43

Record NCC[C@H](O)C(=O)N[C@@H]1C[C@H](N)[C@@H](O[C@H]2O[C@H](CN)[C@@H](O)[C@H](O)[C@H]2N)[C@H](O[C@@H]2O[C@H](CO)[C@@H](O)[C@H]2O)[C@H]1O . Reported activity, negative = cell killing: -11.1

For record C[N+]1([O-])[C@@H]2CC[C@H]1CC(OC(=O)C(CO)c1ccccc1)C2 (some centres undefined) the listed activity, negative = cell killing is -20.9

// activity, negative = cell killing value for CCC1(C)CC(=O)NC(=O)C1 : -5.16

###

- System: CRL-7250
- assayText: Cytotoxic Profiling of Annotated Libraries Using Quantitative High-Throughput Screening (AID 1296008); also: nearly all actives have a fitted effect of over 60% in size
- assaySetup: Five cell lines viability, CellTiter-Glo ATP luminescence, 48-72 h
Results filed as inconclusive are left out. Calls of active or inactive are those of the source. Calls come from the whole dose curve; as a rule, active = well fitted inhibition curve with a large enough effect; inconclusive = small, poorly fitted or top-dose-only effect; inactive = flat fitted curve, though single readings scatter.
Write down the outcome that applies. Available outcomes: yes = active, no = inactive

Incoming: # lookup: test call for O=C(O)c1ccnc2cc(C(OCCN3CCCCC3)c3ccccc3Cl)[nH]c12 (stereo not drawn)
Outgoing: no

Incoming: State the result this test recorded for COc1cc(C)[nH]c(=O)c1CNC(=O)c1c(C)n([C@H](C)C2CCOCC2)c2ccccc12 .
Outgoing: no

Incoming: Each compound tested received a call. Report the one for C[CH2][Hg][S]c1ccccc1C(=O)O .
Outgoing: yes

Incoming: Would you mind telling me which call this test gave CCC(C)(OC(C)=O)C(=O)O[C@H]1[C@H](OC(C)=O)C[C@@H]2[C@@](C)([C@@H]3C[C@H]4C=CO[C@H]4O3)[C@H](C)C[C@H](OC(C)=O)[C@@]2(COC(C)=O)[C@@]12CO2 (stereo partly drawn) ?
Outgoing: no

Incoming: Please indicate how the test categorized C1=C2CCCN[C@H]2[C@@H]2C[C@H]1[C@H]1CCCCN1C2 .
Outgoing: no

Incoming: Hello, I am checking results. What call was entered for O=C1C[C@@H]2OCC=C3CN4CC[C@]56c7ccccc7N1[C@H]5[C@H]2[C@H]3C[C@H]46 ?
Outgoing: no

Incoming: Answer briefly: the call reported for CO[C@H]1[C@H](O)[C@H](O[C@H]2CC[C@]3(C)C4CC[C@]5(C)[C@H](C6=CC(=O)OC6)CC[C@]5(O)C4CC[C@@H]3C2)O[C@@H](C)[C@@H]1O (stereo partly drawn) in this assay.
Outgoing: yes

Incoming: Dear all, I need the recorded test outcome for CN1CCC[C@@H]1Cc1c[nH]c2ccc(Nc3ncccc3[N+](=O)[O-])cc12 , thank you.
Outgoing: no

###

- System: W2
- assayText: qHTS profiling for inhibitors of Plasmodium falciparum proliferation (AID 504749); also: nearly all actives have a fitted effect of over 60% in size
- assaySetup: P. falciparum in erythrocytes, SYBR Green DNA, 72 h; series mostly up to 28.7 µM
Records with an inconclusive call do not appear. Calls of active or inactive are those of the source. Calls follow the shape of the dose curve; as a rule, active = well fitted inhibition curve with a large enough effect; inconclusive = small, poorly fitted or top-dose-only effect; inactive = flat fitted curve, though single readings scatter.
Outcome (select one): active, inactive

Incoming: In this assay, the call recorded for CN1c2ccccc2C(NCCCCCCC(=O)O)c2ccc(Cl)cc2S1(=O)=O (stereo not given) was what?
Outgoing: inactive

Incoming: Status in this test for O=C(OCCN1CCCCC1)C(O)(c1ccccc1)c1ccccc1 ?
Outgoing: inactive

Incoming: For this compound, state the assay outcome: CCC(C)(S(=O)(=O)CC)S(=O)(=O)CC
Outgoing: inactive

Incoming: Please let me know the test result on file for CCC1(c2ccccc2)C(=O)NC(=O)N(C)C1=O (stereo not given) .
Outgoing: active

Incoming: Returns: the outcome recorded for NCC(O)c1cccc(O)c1 (stereo not given) in this assay.
Outgoing: inactive

Incoming: Please let me know the test result on file for ClCC1CO1 (stereo not given) .
Outgoing: inactive

Incoming: Hi team, can someone confirm the assay call for c1cc2c(c(NC3=NCCN3)c1)CCCC2 ?
Outgoing: inactive

Incoming: Write down the call the test reported for this compound. Item: CC(C)Nc1ccc(Nc2ccccc2)cc1
Outgoing: active

Incoming: How was O=C(CS(=O)C(c1ccccc1)c1ccccc1)NO (stereo not given) classified in this test?
Outgoing: inactive

Incoming: Assay result, entry COC([CH2][Hg])CNC(=O)c1ccccc1OCC(=O)O (stereo not given) — outcome?
Outgoing: inactive

Incoming: Test call for this compound, please: ClC1C(Cl)C(Cl)C(Cl)C(Cl)C1Cl (stereo not given)
Outgoing: inactive

Incoming: Name the outcome recorded for CC(N)Cc1ccc(O)cc1 (stereo not given) in the assay.
Outgoing: inactive

Incoming: Per the assay record, what outcome was assigned to O[C@H]1[C@H]2[C@H](O)CCCN2C[C@H]1O ?
Outgoing: inactive

Incoming: Can you look up the reported call for [Cl-].[Cl-].[Hg+2] for me?
Outgoing: active

Incoming: Per the assay record, what outcome was assigned to O=C(NC(=O)c1c(F)cccc1F)Nc1ccc(Cl)c(Oc2ncc(C(F)(F)F)cc2Cl)c1 ?
Outgoing: inactive

Incoming: Any idea what this test logged for O=C(NCNC(=O)NC1C(=O)NC(=O)N1CO)NC1C(=O)NC(=O)N1CO (stereo not given) ?
Outgoing: inactive

Incoming: Dear all, I need the recorded test outcome for CCC1(c2ccccc2)C(=O)NC(=O)NC1=O , thank you.
Outgoing: inactive

Incoming: Could you please tell me the result logged for C/C(=C\c1csc(C)n1)[C@@H]1C[C@@H]2O[C@]2(C)CCC[C@H](C)[C@H](O)[C@@H](C)C(=O)C(C)(C)[C@@H](O)CC(=O)O1 in this assay?
Outgoing: active

Incoming: # outcome recorded in this test, key = C=CCN1CCC23c4c5ccc(O)c4O[C@H]2C(=O)CC[C@@]3(O)C1C5 (stereo not given in full)
Outgoing: inactive

Incoming: Short answer needed: outcome of this test for CN1C2CCC1CC(OC(c1ccccc1)c1ccc(Cl)cc1)C2 (stereo not given) ?
Outgoing: active

Incoming: Recorded call for CC(C)CCON=O ?
Outgoing: inactive

Incoming: Give the logged outcome of this assay for the following compound: CC(Cc1ccccc1)NC=O (stereo not given)
Outgoing: inactive

Incoming: Check the results log: what was the call for C=CCN(C1=NCCN1)c1c(Cl)cccc1Cl ?
Outgoing: inactive

Incoming: I would be grateful if you could indicate the recorded call for CC[N+](C)(CC)CCOC(=O)C(O)(c1ccccc1)c1ccccc1 .
Outgoing: inactive

Incoming: GET /call?item= Oc1cc(Cl)c(Cl)cc1Cl returns the recorded outcome of this test.
Outgoing: inactive

Incoming: Outcome logged for CCC(N)Cc1c[nH]c2ccccc12 (stereo not given) in this assay:
Outgoing: inactive

Incoming: Which outcome was assigned to O=[N+]([O-])c1cc(I)c(O)c(I)c1 in this test?
Outgoing: inactive

Incoming: I would be grateful if you could indicate the recorded call for Clc1ccc(C2(Cn3cncn3)OCCO2)c(Cl)c1 .
Outgoing: inactive

Incoming: For this compound, state the assay outcome: Oc1cccc[c]1[Hg][Cl]
Outgoing: active

Incoming: Recorded test call requested for C#CC(C)(O)CC (stereo not given)
Outgoing: inactive

Incoming: # fetch the recorded call for COc1ccc(OC)c(C(O)C(C)N)c1 (stereo not given) here
Outgoing: inactive

Incoming: Could you kindly confirm the outcome this assay logged for CNC(C)C(O)c1ccc(O)cc1 (stereo not given) ?
Outgoing: inactive

Incoming: Outcome logged for N#CN in this assay:
Outgoing: inactive

Incoming: Record lookup: outcome of this test for O=C(CCl)c1ccc(Oc2ccc(C(=O)CCl)cc2)cc1 ?
Outgoing: inactive

Incoming: How did this test come out for O=S(=O)(O)c1cc(O)ccc1O ?
Outgoing: inactive

Incoming: Test call, this compound: ClC(Cl)(Cl)Cl
Outgoing: inactive

Incoming: Would you mind telling me which call this test gave C[C@@H](Cc1ccccc1)NCCC(c1ccccc1)c1ccccc1 ?
Outgoing: active

Incoming: # outcome recorded in this test, key = CN1[C@@H]2CC[C@H]1CC(OC1c3ccccc3CCc3ccccc31)C2 (stereo not given in full)
Outgoing: active

Incoming: Any idea what this test logged for C=CCC1(C(C)CCC)C(=O)N=C(S)NC1=O (stereo not given) ?
Outgoing: inactive

Incoming: Short answer needed: outcome of this test for [N-]=[N+]=CC(=O)OCC(N)C(=O)O (stereo not given) ?
Outgoing: inactive

Incoming: What call does the record list for Clc1ccc(Cl)cc1 ?
Outgoing: inactive

Incoming: Look up the recorded call for FC(F)OC(F)(F)C(F)Cl (stereo not given) in this test.
Outgoing: inactive

Incoming: Test call for this compound, please: CC(=O)O[C@H]1CC[C@H]2[C@@H]3CCC4=CC(=O)CCC4=C3C=C[C@]12C
Outgoing: inactive

Incoming: Lab log entry: CN1CCCC(=C(c2cccs2)c2cccs2)C1 — outcome as called in the assay?
Outgoing: active

Incoming: Outcome? c1ccc(C2(N3CCCC3)CCCCC2)cc1
Outgoing: active

Incoming: I'd appreciate the recorded outcome for O=[N+]([O-])c1ccccc1 from this test.
Outgoing: inactive

Incoming: Recorded test outcome, item CC12NC(Cc3ccccc31)c1ccccc12 (stereo not given)
Outgoing: active

Incoming: What did this assay record as the result for O=CC=O ?
Outgoing: inactive

Incoming: Per the records of this test, what outcome belongs to C[N+]1(C)C2CCC1CC(OC(=O)c1c[nH]c3ccccc13)C2 (stereo not given) ?
Outgoing: inactive

Incoming: State the result this test recorded for O=C1CCO1 .
Outgoing: inactive

Every entry's value here was drawn from PubChem BioAssay (NCATS).
